study-target: UniProt:Q9NQS5
Sequence (Q9NQS5 whole entry): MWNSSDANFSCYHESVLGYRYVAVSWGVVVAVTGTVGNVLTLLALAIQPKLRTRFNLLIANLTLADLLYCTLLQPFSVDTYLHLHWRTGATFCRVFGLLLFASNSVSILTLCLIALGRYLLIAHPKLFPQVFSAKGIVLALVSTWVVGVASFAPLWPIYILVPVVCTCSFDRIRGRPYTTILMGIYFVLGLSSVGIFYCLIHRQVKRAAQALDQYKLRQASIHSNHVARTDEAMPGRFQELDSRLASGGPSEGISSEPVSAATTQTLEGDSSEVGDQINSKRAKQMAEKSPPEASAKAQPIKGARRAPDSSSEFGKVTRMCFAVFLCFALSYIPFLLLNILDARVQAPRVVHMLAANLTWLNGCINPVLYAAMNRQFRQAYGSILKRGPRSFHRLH
assay-info: Displacement of [3H]PSB-1584 from recombinant human GPR84 expressed in CHO cell membranes co-expressing beta-arrestin2 measured after 6 hrs by scintillation counting method
pKi: −log10 of the molar value.
measured-property: pKi

compound=O=c1cc(NCCc2ccccc2F)[nH]c(=O)[nH]1 result_operator== result_value=7.45
compound=O=c1cc(NCCc2c[nH]c3ccccc23)[nH]c(=O)[nH]1 result_operator== result_value=6.30
compound=CCCCCCCCNC(=O)c1cc(=O)[nH]c(=O)[nH]1 result_operator=< result_value=5.00
compound=O=c1cc(NCCc2cccc(Br)c2)[nH]c(=O)[nH]1 result_operator== result_value=8.40
compound=O=c1cc(O)nc(SCCc2ccc(C(F)(F)F)cc2)[nH]1 result_operator== result_value=7.44
compound=CCCCCCCNc1cc(=O)[nH]c(=O)[nH]1 result_operator== result_value=9.06
compound=O=Nc1c(NCCCc2ccccc2)[nH]c(=O)[nH]c1=O result_operator== result_value=6.72
compound="CCCCCCCCCCCC(=O)O [DODECANOATE]" result_operator== result_value=5.66
compound="CCCCCCCCCC(O)CC(=O)O (racemic)" result_operator== result_value=6.96
compound=O=c1cc(NCCCOc2ccccc2)[nH]c(=O)[nH]1 result_operator== result_value=8.68
compound="CCCCCCCCCCCCC(O)C(=O)O (racemic)" result_operator== result_value=6.50
compound="CCCCCCCC(=O)O [OCTANOIC ACID]" result_operator== result_value=4.71
